Tested on: CCRIS mutagenicity, Ames/micronucleus/aberration tests
Assay: CCRIS mutagenicity studies
Settings: Test System: AMES SALMONELLA TYPHIMURIUM; Strain/Indicator: TA1538; Metabolic Activation: NONE; Method: PREINCUBATION
Excerpt: The CCRIS database contains chemical records with carcinogenicity, mutagenicity, tumor promotion, and tumor inhibition test results. It was developed by the National Cancer Institute (NCI). Data are derived from studies cited in primary journals, current awareness tools, NCI reports, and other sources. Test results have been reviewed by experts in carcinogenesis and mutagenesis. CCRIS provides historical information from the years 1985 - 2011. It is no longer updated. […]
The source made the active and inactive calls. How the calls were made is not given here.
In this exercise, the only acceptable responses are active, inactive

Study these solved cases before continuing.
>  <MOLECULE>
Cc1n[nH]c(=O)[nH]c1=O

>  <DISCRETE_LABEL>
inactive

$$$$
>  <MOLECULE>
[O]=[W](=[O])([OH])[OH]

>  <DISCRETE_LABEL>
inactive

$$$$
>  <MOLECULE>
C=CC1CC2C=CC1C2 (centres undefined)

>  <DISCRETE_LABEL>
inactive

$$$$
>  <MOLECULE>
CC(C)O

>  <DISCRETE_LABEL>
inactive

$$$$

Please find the next molecule below.
Q: Would you mind telling me which call this test gave COc1ccc(C(=O)N2CCN(c3ccc4c(c3)CCC(=O)N4)CC2)cc1OC ?
A: inactive

* * *

system: CCRIS mutagenicity, Ames/micronucleus/aberration tests; assay: CCRIS mutagenicity studies; settings: Test System: AMES SALMONELLA TYPHIMURIUM; Strain/Indicator: TA100; Metabolic Activation: NONE; Method: PREINCUBATION
The source made the active and inactive calls. The rule behind the calls is not given here.
In this exercise, the only acceptable responses are yes for active, no for inactive

>  <COMPOUND>
O=C1c2ccccc2-c2ccc3c4c(ccc1c24)-c1ccccc1C3=O

>  <DISCRETE_LABEL>
no

$$$$
>  <COMPOUND>
C[C@]12CCC(=O)C=C1[C@@H]1C[C@@H]1[C@H]1[C@@H]3[C@@H]4C[C@@H]4[C@@]4(CCC(=O)O4)[C@@]3(C)CC[C@@H]12

>  <DISCRETE_LABEL>
no

$$$$
>  <COMPOUND>
Cc1cc(Cc2ccc(N)c(C)c2)ccc1N

>  <DISCRETE_LABEL>
no

$$$$

Q: Would you mind telling me which call this test gave CCCCNC(=O)n1c(NC(=O)OC)nc2ccccc21 ?
A: no

Q: Would you mind telling me which call this test gave CCC/C=C(/C=O)CC ?
A: no

Q: Would you mind telling me which call this test gave COc1c(O)cc2oc(-c3ccc(O)cc3)cc(=O)c2c1O ?
A: no

Q: Would you mind telling me which call this test gave CC(=O)CCC(C)=O ?
A: no

Q: Would you mind telling me which call this test gave C1=CC2OC2C=C1 (stereo not given) ?
A: no

Q: Would you mind telling me which call this test gave OCCCCl ?
A: no

Q: Would you mind telling me which call this test gave Cc1cc2c(c3ccc4ccccc4c13)[C@@H]1O[C@@H]1[C@H](O)[C@H]2O ?
A: yes

Q: Would you mind telling me which call this test gave O=C(OCC(COC(=O)c1ccccc1)(COC(=O)c1ccccc1)COC(=O)c1ccccc1)c1ccccc1 ?
A: no

Q: Would you mind telling me which call this test gave O=C(ON=C1C=CC(=NOC(=O)c2ccccc2)C=C1)c1ccccc1 ?
A: no

Provenance of the data: PubChem BioAssay AID1259407
